# credit: ChEMBL document CHEMBL1121982

target: Mu-type opioid receptor (Cavia porcellus, UniProt P97266); experiment: Inhibitory potency against mu receptor in guinea pig ileum assay; format: functional, tissue-based
reported.metric: IC50

Q: Report IC50 for CC(C)C[C@H](NC(=O)[C@H](Cc1ccccc1)NC(=O)CNC(=O)[C@@H](C)NC(=O)[C@@H](N)Cc1ccc(O)cc1)C(N)=O please.
A: 7.63 nM

---

target: Delta-type opioid receptor (Rattus norvegicus, UniProt P33533); assay: Inhibition of [3H][D-Ala2,D-Leu5]enkephalin binding to Opioid receptor delta 1 in the rat brain homogenate; assay type: tissue-based
Sequence (P33533 whole entry): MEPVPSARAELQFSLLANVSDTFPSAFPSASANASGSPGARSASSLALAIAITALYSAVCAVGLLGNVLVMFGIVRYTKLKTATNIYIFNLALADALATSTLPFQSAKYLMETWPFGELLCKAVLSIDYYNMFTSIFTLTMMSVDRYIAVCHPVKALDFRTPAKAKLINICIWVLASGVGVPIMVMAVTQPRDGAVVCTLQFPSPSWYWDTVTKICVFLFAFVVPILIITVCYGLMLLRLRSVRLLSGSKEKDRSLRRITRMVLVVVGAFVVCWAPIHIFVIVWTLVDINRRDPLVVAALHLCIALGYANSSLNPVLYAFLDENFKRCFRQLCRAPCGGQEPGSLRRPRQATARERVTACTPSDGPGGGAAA
Property: Ki; scope: individual compounds

Solved cases (5 shown):
{"substance.smiles": "CC(C)C[C@@H]1NC(=O)[C@H](Cc2ccccc2)NC(=O)CNC(=O)[C@H](NC(=O)[C@@H](N)Cc2ccc(O)cc2)CCNC1=O", "subject.of.test": "Delta-type opioid receptor (Rattus norvegicus, UniProt P33533)", "reported.metric": "Ki", "value": "115 nM"}
{"substance.smiles": "CC(=O)O.CCCC[C@@H](NC(=O)[C@@H](N)Cc1ccc(O)cc1)C(=O)NCC(=O)N[C@@H](Cc1ccccc1)C(=O)N[C@@H](CC(C)C)C(N)=O", "subject.of.test": "Delta-type opioid receptor (Rattus norvegicus, UniProt P33533)", "reported.metric": "Ki", "value": "4.35 nM"}
{"substance.smiles": "CC(=O)O.CCC[C@@H](NC(=O)[C@@H](N)Cc1ccc(O)cc1)C(=O)NCC(=O)N[C@@H](Cc1ccccc1)C(=O)N[C@@H](CC(C)C)C(N)=O", "subject.of.test": "Delta-type opioid receptor (Rattus norvegicus, UniProt P33533)", "reported.metric": "Ki", "value": "3.1 nM"}
{"substance.smiles": "CC(=O)O.CC(C)C[C@H]1NC(=O)[C@H](Cc2ccccc2)NC(=O)CNC(=O)[C@H](NC(=O)[C@@H](N)Cc2ccc(O)cc2)CCCCNC1=O", "subject.of.test": "Delta-type opioid receptor (Rattus norvegicus, UniProt P33533)", "reported.metric": "Ki", "value": "21.7 nM"}
{"substance.smiles": "CC(C)C[C@@H]1NC(=O)[C@H](Cc2ccccc2)NC(=O)CNC(=O)[C@H](NC(=O)[C@@H](N)Cc2ccc(O)cc2)CCCNC1=O", "subject.of.test": "Delta-type opioid receptor (Rattus norvegicus, UniProt P33533)", "reported.metric": "Ki", "value": "100 nM"}

Q: Report Ki for CC(C)C[C@@H]1NC(=O)[C@H](Cc2ccccc2)NC(=O)CNC(=O)[C@H](NC(=O)[C@@H](N)Cc2ccc(O)cc2)CCCCNC1=O please.
A: 14.6 nM

Q: Report Ki for CC(=O)O.CC(C)C[C@@H]1NC(=O)[C@H](Cc2ccccc2)NC(=O)CNC(=O)[C@H](NC(=O)[C@@H](N)Cc2ccc(O)cc2)CNC1=O please.
A: 53.6 nM

Q: Report Ki for CC(=O)O.CC[C@@H](NC(=O)[C@@H](N)Cc1ccc(O)cc1)C(=O)NCC(=O)N[C@@H](Cc1ccccc1)C(=O)N[C@@H](CC(C)C)C(N)=O please.
A: 4.06 nM

---

target: Mu-type opioid receptor (Rattus norvegicus, UniProt P33535); test: Inhibition of binding of [3H]naloxone to Opioid receptor mu 1 in the rat brain homogenate; assay type: tissue-based
Sequence (P33535 whole entry): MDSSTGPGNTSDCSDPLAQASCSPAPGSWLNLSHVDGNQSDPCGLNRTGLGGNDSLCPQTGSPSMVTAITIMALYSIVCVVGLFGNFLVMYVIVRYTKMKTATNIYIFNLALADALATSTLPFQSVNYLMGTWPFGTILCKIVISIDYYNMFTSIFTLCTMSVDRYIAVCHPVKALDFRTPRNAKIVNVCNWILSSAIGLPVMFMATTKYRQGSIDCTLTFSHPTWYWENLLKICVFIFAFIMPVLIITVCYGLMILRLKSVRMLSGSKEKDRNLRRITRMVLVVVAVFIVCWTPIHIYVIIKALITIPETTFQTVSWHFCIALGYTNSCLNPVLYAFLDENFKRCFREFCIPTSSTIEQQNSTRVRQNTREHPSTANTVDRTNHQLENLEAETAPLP
pIC50: −log10 of the molar value.
Tag: 1 (yes) if measured pIC50 is not below 8, 0 (no) if it is.

Example results:
{"substance.smiles": "CC(=O)O.N[C@@H](Cc1ccc(O)cc1)C(=O)N[C@@H]1CCCCNC(=O)[C@H](Cc2ccccc2)NC(=O)CNC1=O", "class.label": "1 (yes)"}
{"substance.smiles": "CC(C)C[C@@H]1NC(=O)[C@H](Cc2ccccc2)NC(=O)CNC(=O)[C@H](NC(=O)[C@@H](N)Cc2ccc(O)cc2)CCNC1=O", "class.label": "0 (no)"}
{"substance.smiles": "CC(=O)O.CCCC[C@@H](NC(=O)[C@@H](N)Cc1ccc(O)cc1)C(=O)NCC(=O)N[C@@H](Cc1ccccc1)C(=O)N[C@@H](CC(C)C)C(N)=O", "class.label": "1 (yes)"}
{"substance.smiles": "CC(C)C[C@@H]1NC(=O)[C@H](Cc2ccccc2)NC(=O)CNC(=O)[C@H](NC(=O)[C@@H](N)Cc2ccc(O)cc2)CCCCNC1=O", "class.label": "0 (no)"}

Q: Say whether CC(=O)O.CC(C)C[C@@H]1NC(=O)[C@H](Cc2ccccc2)NC(=O)CNC(=O)[C@H](NC(=O)[C@@H](N)Cc2ccc(O)cc2)CNC1=O shows pIC50 of 8 or more.
A: 0 (no)

---

target: Delta-type opioid receptor (Mus musculus) (UniProt P32300); test: […] in mouse vas deferens assay for Opioid receptor delta 1; type: functional
Sequence (P32300 whole entry): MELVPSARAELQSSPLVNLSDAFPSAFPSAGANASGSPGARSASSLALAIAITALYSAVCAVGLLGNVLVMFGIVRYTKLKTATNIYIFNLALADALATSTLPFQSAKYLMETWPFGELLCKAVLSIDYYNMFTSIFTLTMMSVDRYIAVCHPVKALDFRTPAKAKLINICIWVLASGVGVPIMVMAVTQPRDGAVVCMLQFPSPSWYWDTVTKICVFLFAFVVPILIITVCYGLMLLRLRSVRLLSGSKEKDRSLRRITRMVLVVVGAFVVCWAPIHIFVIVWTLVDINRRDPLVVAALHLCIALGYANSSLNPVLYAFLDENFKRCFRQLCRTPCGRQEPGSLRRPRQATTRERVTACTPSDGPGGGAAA
Threshold 0.6 nM: Ke strictly smaller gives t, otherwise f.

{"substance.smiles": "CC(C)C[C@@H]1NC(=O)[C@H](Cc2ccccc2)NC(=O)CNC(=O)[C@H](NC(=O)[C@@H](N)Cc2ccc(O)cc2)CCCCNC1=O", "class.label": "t"}
{"substance.smiles": "CC(C)C[C@@H]1NC(=O)[C@@H](Cc2ccccc2)NC(=O)CNC(=O)[C@H](NC(=O)[C@@H](N)Cc2ccc(O)cc2)CCNC1=O", "class.label": "t"}
{"substance.smiles": "CC(=O)O.CCC[C@@H](NC(=O)[C@@H](N)Cc1ccc(O)cc1)C(=O)NCC(=O)N[C@@H](Cc1ccccc1)C(=O)N[C@@H](CC(C)C)C(N)=O", "class.label": "f"}
{"substance.smiles": "CC(=O)O.CCCC[C@@H](NC(=O)[C@@H](N)Cc1ccc(O)cc1)C(=O)NCC(=O)N[C@@H](Cc1ccccc1)C(=O)N[C@@H](CC(C)C)C(N)=O", "class.label": "f"}
{"substance.smiles": "CC(=O)O.CC[C@@H](NC(=O)[C@@H](N)Cc1ccc(O)cc1)C(=O)NCC(=O)N[C@@H](Cc1ccccc1)C(=O)N[C@@H](CC(C)C)C(N)=O", "class.label": "f"}

Now for a further molecule.
Q: # check: Ke < 0.6 nM for CC(=O)O.CC(C)C[C@@H]1NC(=O)[C@H](Cc2ccccc2)NC(=O)CNC(=O)[C@H](NC(=O)[C@@H](N)Cc2ccc(O)cc2)CNC1=O
A: t

---

target: Mu-type opioid receptor (Rattus norvegicus); assay: Inhibition of [3H]-naloxone binding to mu receptor in rat brain homogenate; assay type: tissue-based
reported.metric: IC50 (µM)
Supply the numeric figure in µM, leaving out any unit text.

Q: Report IC50 for CC(C)C[C@@H]1NC(=O)[C@H](Cc2ccccc2)NC(=O)CNC(=O)[C@H](NC(=O)[C@@H](N)Cc2ccc(O)cc2)CCCNC1=O please.
A: 0.0566

---

Property: pIC50; scope: individual compounds
target: Delta-type opioid receptor (Mus musculus, UniProt P32300); experiment: Inhibitory potency against Opioid receptor delta 1 in the mouse vas deferens assay; format: functional, tissue-based
Sequence (P32300 whole entry): as above
Note on units: pIC50 is unitless, being -log10 of a concentration expressed in mol/L.

Q: Item: CC(=O)O.N[C@@H](Cc1ccc(O)cc1)C(=O)N[C@@H]1CCCCNC(=O)[C@H](Cc2ccccc2)NC(=O)CNC1=O Test system: Delta-type opioid receptor (Mus musculus, UniProt P32300) Read-out: pIC50 Value: ?
A: 7.47

Q: Item: CC(C)C[C@@H]1NC(=O)[C@H](Cc2ccccc2)NC(=O)CNC(=O)[C@H](NC(=O)[C@@H](N)Cc2ccc(O)cc2)CCNC1=O Test system: Delta-type opioid receptor (Mus musculus, UniProt P32300) Read-out: pIC50 Value: ?
A: 7.09

Q: Item: CC(=O)O.CC(C)C[C@@H]1NC(=O)[C@H](Cc2ccccc2)NC(=O)CNC(=O)[C@H](NC(=O)[C@@H](N)Cc2ccc(O)cc2)CNC1=O Test system: Delta-type opioid receptor (Mus musculus, UniProt P32300) Read-out: pIC50 Value: ?
A: 7.14

Q: Item: CC(=O)O.CCCC[C@@H](NC(=O)[C@@H](N)Cc1ccc(O)cc1)C(=O)NCC(=O)N[C@@H](Cc1ccccc1)C(=O)N[C@@H](CC(C)C)C(N)=O Test system: Delta-type opioid receptor (Mus musculus, UniProt P32300) Read-out: pIC50 Value: ?
A: 7.60

---

Property: pIC50; scope: individual molecules
molecular target: Delta-type opioid receptor (Mus musculus); assay: Inhibitory potency against Opioid receptor delta 1 in the mouse vas deferens assay; assay type: functional, tissue-based
Note on units: pIC50 is unitless, being -log10 of a concentration expressed in mol/L.

Solved cases (2 shown):
{"substance.smiles": "CC(=O)O.CCC[C@@H](NC(=O)[C@@H](N)Cc1ccc(O)cc1)C(=O)NCC(=O)N[C@@H](Cc1ccccc1)C(=O)N[C@@H](CC(C)C)C(N)=O", "reported.metric": "pIC50", "value": 7.68}
{"substance.smiles": "CC(C)C[C@H](NC(=O)[C@H](Cc1ccccc1)NC(=O)CNC(=O)[C@@H](C)NC(=O)[C@@H](N)Cc1ccc(O)cc1)C(N)=O", "reported.metric": "pIC50", "value": 8.08}

Here is another molecule to look at.
Q: Report pIC50 for CC(=O)O.CC(C)C[C@H]1NC(=O)[C@H](Cc2ccccc2)NC(=O)CNC(=O)[C@H](NC(=O)[C@@H](N)Cc2ccc(O)cc2)CCCCNC1=O please.
A: 7.76
